The origin of these recorded values is patent US20220177587A1.

Parameter MFI at 33.3 nM: see the listing below.
test-system: CD28 (human) (UniProt P10747)
protocol: flow cytometry, Jurkat/IL2 reporter cells (CD28)
Lab book: enter the figure in MFI, no units written.

A selection of reference data follows.
binder: variant CD80 IgV-Fc E35D/D46E/M47V/N63D/L85Q (Fc fusion) VIHVTKEVKEVATLSCGHNVSVEELAQTRIYWQKDKKMVLTMMSGEVNIWPEYKNRTIFDITDNLSIVILALRPSDEGTYECVVQKYEKDAFKREHLAEVTLSVKAD
unit-tag: MFI
MFI at 33.3 nM: 1330
--
binder: variant CD80 IgV-Fc V22L/Q27H/E35D/M47I/A71G (Fc fusion) VIHVTKEVKEVATLSCGHNVSLEELAHTRIYWQKDKKMVLTMMSGDINIWPEYKNRTIFDITNNLSIVILGLRPSDEGTYECVVLKYEKDAFKREHLAEVTLSVKAD
unit-tag: MFI
MFI at 33.3 nM: 7270

Field MFI at 33.3 nM (entry variant CD80 IgV-Fc E35D/N48K (Fc fusion) VIHVTKEVKEVATLSCGHNVSVEELAQTRIYWQKDKKMVLTMMSGDMKIWPEYKNRTIFDITNNLSIVILALRPSDEGTYECVVLKYEKDAFKREHLAEVTLSVKAD ) reads 194

Field MFI at 33.3 nM (entry variant CD80 IgV-Fc E35D/D46V/M47L/L85Q (Fc fusion) VIHVTKEVKEVATLSCGHNVSVEELAQTRIYWQKDKKMVLTMMSGVLNIWPEYKNRTIFDITNNLSIVILALRPSDEGTYECVVQKYEKDAFKREHLAEVTLSVKAD ) reads 268
